Consider molecules characterized by their IC50 with human N7-MTase RNMT-RAM (Homo sapiens, UniProt O43148).
Sequence (O43148 whole entry): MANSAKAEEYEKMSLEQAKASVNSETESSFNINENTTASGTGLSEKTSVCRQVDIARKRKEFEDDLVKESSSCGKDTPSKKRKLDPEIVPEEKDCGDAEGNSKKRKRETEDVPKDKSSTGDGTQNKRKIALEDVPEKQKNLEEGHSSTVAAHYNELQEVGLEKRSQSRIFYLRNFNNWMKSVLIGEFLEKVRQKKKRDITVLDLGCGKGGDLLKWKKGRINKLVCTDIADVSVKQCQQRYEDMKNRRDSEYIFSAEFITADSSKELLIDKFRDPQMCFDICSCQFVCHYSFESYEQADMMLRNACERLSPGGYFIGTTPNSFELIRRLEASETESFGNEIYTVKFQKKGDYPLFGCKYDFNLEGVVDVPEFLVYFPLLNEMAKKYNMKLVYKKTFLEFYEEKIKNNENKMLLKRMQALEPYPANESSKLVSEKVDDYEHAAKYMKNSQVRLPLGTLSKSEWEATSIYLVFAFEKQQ
Sequence (Q9BTL3 whole entry partner): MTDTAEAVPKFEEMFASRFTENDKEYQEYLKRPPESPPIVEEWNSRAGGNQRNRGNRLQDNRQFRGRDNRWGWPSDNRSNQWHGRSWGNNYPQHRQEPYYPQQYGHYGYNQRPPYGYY
Where a name gives a salt, the structure may show the parent alone.
Answers are plain numbers, in µM.

Please review the entries below; each comes with its answer.
molecule: O=c1c(O)c(-c2cc(O)c(O)c(O)c2)oc2cc(O)cc(O)c12 [LI8, Myricetin]
measurement units: µM
IC50: 3.57

molecule: Nc1c(S(=O)(=O)O)cc(Nc2ccc(Nc3nc(Cl)nc(Nc4cccc(S(=O)(=O)O)c4)n3)c(S(=O)(=O)O)c2)c2c1C(=O)c1ccccc1C2=O [LI4, Reactive Blue 2]
measurement units: µM
IC50: 1.5

molecule: Cc1cc(-c2ccc(/N=N/c3ccc4c(S(=O)(=O)O)cc(S(=O)(=O)O)c(N)c4c3O)c(C)c2)ccc1/N=N/c1ccc2c(S(=O)(=O)O)cc(S(=O)(=O)O)c(N)c2c1O [FI7, Evans Blue]
measurement units: µM
IC50: 0.33

molecule: CC(C)N(CCC(=O)c1ccc2ccccc2c1)Cc1ccccc1 [LI7, ZM 39923 HCl]
measurement units: µM
IC50: 15.9

molecule: O=C1c2c(O)ccc(O)c2C(=O)c2c(NCCNCCO)ccc(NCCNCCO)c21 [LI5, Mitoxantrone 2HCl]
measurement units: µM
IC50: 3.92

Then there is this molecule:
Q. In one line, give reported IC50 of the entry Nc1ncnc2c1ncn2[C@@H]1O[C@H](C[C@@H](N)CC[C@H](N)C(=O)O)[C@@H](O)[C@H]1O [Sinefungin] .
A. 0.22
